All values here come from ChEMBL document CHEMBL3085642.

Tested on: Klebsiella pneumoniae
Experiment: Antibacterial activity against Klebsiella pneumoniae by two fold broth dilution method
Assay type: functional
property-measured: MIC (µg/mL)
Give bare numbers, in µg/mL.

>>> print(df.to_string())
                              line_notation  recorded_number
0  Cn1cc([N+](=O)[O-])cc1-c1nnc(-c2cccs2)o1               50
1  O=[N+]([O-])c1c[nH]c(-c2nnc(-c3ccns3)o2)c1               25
2  O=[N+]([O-])c1c[nH]c(-c2nnc(-c3cccc([N+](=O)[O-])c3O)o2)c1               25
3  Cc1ccc(-c2nnc(-c3cc([N+](=O)[O-])c[nH]3)o2)s1               25
4  O=[N+]([O-])c1c[nH]c(-c2nnc(-c3ccccc3Br)o2)c1               25
5  Cn1cc([N+](=O)[O-])cc1-c1nnc(-c2ccns2)o1             12.5

Below are 2 compounds. Give each one its MIC.
1. Cn1cc([N+](=O)[O-])cc1-c1nnc(-c2ccc(Cl)cc2Cl)o1
2. O=[N+]([O-])c1c[nH]c(-c2nnc(C3(c4ccccc4)CC3)o2)c1

1: 12.5; 2: 25

Below are 2 compounds. Give each one its MIC.
1. Cc1ccc(-c2nnc(-c3cc([N+](=O)[O-])cn3C)o2)s1
2. O=[N+]([O-])c1c[nH]c(-c2nnc(-c3ccccc3)o2)c1

[12.5, 25]

----------
Test system: Escherichia coli
Assay: Antibacterial activity against Escherichia coli ATCC 25922 by two fold broth dilution method
Assay type: functional
property-measured: log10 of MIC (log10 of the value in µg/mL)
Log scale reminder: MIC in µg/mL, then log10 taken.

>>> print(df.to_string())
                                   molecule  recorded_number
0  Cn1cc([N+](=O)[O-])cc1-c1nnc(-c2ccc[nH]2)o1             0.19
1  COc1cccc(-c2nnc(-c3cc([N+](=O)[O-])c[nH]3)o2)c1             0.49
2  O=[N+]([O-])c1c[nH]c(-c2nnc(-c3ccco3)o2)c1             0.49
3  Cn1cc([N+](=O)[O-])cc1-c1nnc(-c2cc3ccccc3[nH]2)o1             0.80
4  O=[N+]([O-])c1c[nH]c(-c2nnc(-c3ccns3)o2)c1             0.80
5  Cn1cc([N+](=O)[O-])cc1-c1nnc(-c2cc(-c3ccccc3)nc3ccc(Cl)cc23)o1            -0.41
6  O=[N+]([O-])c1c[nH]c(-c2nnc(-c3cccc([N+](=O)[O-])c3O)o2)c1             0.80
7  Cn1cc([N+](=O)[O-])cc1-c1nnc(-c2ccns2)o1             0.80
8  O=[N+]([O-])c1c[nH]c(-c2nnc(C3(c4ccccc4)CC3)o2)c1             0.19
9  Cn1cc([N+](=O)[O-])cc1-c1nnc(-c2cccc([N+](=O)[O-])c2O)o1             0.49

Below are 8 molecules. Give each one its log10 of MIC.
1. O=[N+]([O-])c1c[nH]c(-c2nnc(-c3cc4cc(Cl)ccc4[nH]3)o2)c1
2. O=[N+]([O-])c1c[nH]c(-c2nnc(-c3cc(-c4ccccc4)nc4ccc(Cl)cc34)o2)c1
3. Cc1ccc(-c2nnc(-c3cc([N+](=O)[O-])cn3C)o2)s1
4. COc1cc(/C=C/c2nnc(-c3cc([N+](=O)[O-])c[nH]3)o2)ccc1O
5. Cn1cc([N+](=O)[O-])cc1-c1nnc(-c2ccc(Cl)cc2Cl)o1
6. Cn1cc([N+](=O)[O-])cc1-c1nnc(Cc2ccccc2F)o1
7. O=[N+]([O-])c1c[nH]c(-c2nnc(Cc3ccccc3F)o2)c1
8. Cn1cc([N+](=O)[O-])cc1-c1nnc(-c2ccccc2Br)o1

[0.19, -0.11, 0.80, 0.49, 0.19, 0.19, 0.19, 0.19]

Below are 2 molecules. Give each one its log10 of MIC.
1. COc1cc(/C=C/c2nnc(-c3cc([N+](=O)[O-])cn3C)o2)ccc1O
2. O=[N+]([O-])c1c[nH]c(-c2nnc(-c3ccccc3Br)o2)c1

1: 0.49; 2: 0.19

Below are 2 molecules. Give each one its log10 of MIC.
1. O=[N+]([O-])c1c[nH]c(-c2nnc(C3CCCNC3)o2)c1 (stereo not given)
2. O=[N+]([O-])c1c[nH]c(-c2nnc(-c3ccccc3)o2)c1

1. 0.49
2. 0.80

Below are 5 molecules. Give each one its log10 of MIC.
1. Cn1cc([N+](=O)[O-])cc1-c1nnc(-c2ccc(C#N)cc2)o1
2. Cc1ccc(-c2nnc(-c3cc([N+](=O)[O-])c[nH]3)o2)s1
3. COc1cccc(-c2nnc(-c3cc([N+](=O)[O-])cn3C)o2)c1
4. Cn1cc([N+](=O)[O-])cc1-c1nnc(C2CCCNC2)o1 (stereo not given)
5. COc1ccc(-c2nnc(-c3cc([N+](=O)[O-])cn3C)o2)cc1

0.80
0.80
0.49
0.49
0.80

Below are 2 molecules. Give each one its log10 of MIC.
1. COc1ccc(-c2nnc(-c3cc([N+](=O)[O-])c[nH]3)o2)cc1
2. O=[N+]([O-])c1c[nH]c(-c2nnc(-c3ccc[nH]3)o2)c1

0.80
-0.11

Below are 2 molecules. Give each one its log10 of MIC.
1. Cn1cc([N+](=O)[O-])cc1-c1nnc(Cc2ccc(F)c3ccccc23)o1
2. Cn1cc([N+](=O)[O-])cc1-c1nnc(-c2ccccc2OC(F)(F)F)o1

[0.80, 0.49]

Below are 5 molecules. Give each one its log10 of MIC.
1. O=[N+]([O-])c1c[nH]c(-c2nnc(-c3cccs3)o2)c1
2. COc1cccc(OC)c1-c1nnc(-c2cc([N+](=O)[O-])c[nH]2)o1
3. N#Cc1ccc(-c2nnc(-c3cc([N+](=O)[O-])c[nH]3)o2)cc1
4. Cn1cc([N+](=O)[O-])cc1-c1nnc(-c2cc3cc(Cl)ccc3[nH]2)o1
5. O=[N+]([O-])c1c[nH]c(-c2nnc(Cc3ccc(F)c4ccccc34)o2)c1

1: 0.19; 2: 0.49; 3: 0.49; 4: 0.19; 5: 0.49

Below are 4 molecules. Give each one its log10 of MIC.
1. COc1cccc(OC)c1-c1nnc(-c2cc([N+](=O)[O-])cn2C)o1
2. Cn1cc([N+](=O)[O-])cc1-c1nnc(-c2ccco2)o1
3. Cn1cc([N+](=O)[O-])cc1-c1nnc(-c2cccs2)o1
4. O=[N+]([O-])c1c[nH]c(-c2nnc(-c3ccccc3O)o2)c1

[0.80, 0.49, 0.80, 0.19]

----------
Tested on: Staphylococcus aureus
Test: Antibacterial activity against Staphylococcus aureus ATCC 25923 by two fold broth dilution method
Type: functional
For each entry below, report its MIC value.
Your answer should be a number followed by the unit of measure.

In [3]: df
Out[3]:
                                   compound            system_name      result
0  Cn1cc([N+](=O)[O-])cc1-c1nnc(C2CCCNC2)o1 (stereo unspecified)  Staphylococcus aureus  0.78 µg/mL
1  O=[N+]([O-])c1c[nH]c(-c2nnc(Cc3ccccc3F)o2)c1  Staphylococcus aureus  1.56 µg/mL
2  Cn1cc([N+](=O)[O-])cc1-c1nnc(-c2cccc([N+](=O)[O-])c2O)o1  Staphylococcus aureus  0.78 µg/mL
3  N#Cc1ccc(-c2nnc(-c3cc([N+](=O)[O-])c[nH]3)o2)cc1  Staphylococcus aureus  1.56 µg/mL

Below are 7 compounds. Give each one its MIC.
1. O=[N+]([O-])c1c[nH]c(-c2nnc(C3(c4ccccc4)CC3)o2)c1
2. Cc1ccc(-c2nnc(-c3cc([N+](=O)[O-])cn3C)o2)s1
3. Cn1cc([N+](=O)[O-])cc1-c1nnc(-c2ccc[nH]2)o1
4. O=[N+]([O-])c1c[nH]c(-c2nnc(-c3ccc[nH]3)o2)c1
5. Cn1cc([N+](=O)[O-])cc1-c1nnc(-c2cc(-c3ccccc3)nc3ccc(Cl)cc23)o1
6. Cn1cc([N+](=O)[O-])cc1-c1nnc(-c2ccc(Cl)cc2Cl)o1
7. Cn1cc([N+](=O)[O-])cc1-c1nnc(-c2ccns2)o1

1: 0.78 µg/mL; 2: 0.78 µg/mL; 3: 0.39 µg/mL; 4: 0.78 µg/mL; 5: 0.39 µg/mL; 6: 0.39 µg/mL; 7: 0.78 µg/mL
